pIC50 values, listed per item
Biological target: L-type calcium channel (Rattus norvegicus)
Construct: The slips of thoracic aorta extracted from a Sprague-Dawry rat was used; from tissue; host or cells: rat (Sprague-Dawley) thoracic aorta rings, endothelium removed
Experiment: Antagonistic activity on L-type calcium channel: relaxation of KCl contraction of rat thoracic aorta samples
Details: High K+ (50 mM KCl) contraction, Table 10, read-out: L-type inhibition IC50
pIC50: −log10 of the molar value.
readoutType: pIC50

molecule: COCC1=C(C(=O)OCCC(c2ccccc2)c2ccccc2)C(c2cccc(Cl)c2)C(C(=O)O)=C(C)N1 (stereo not shown) [Example 14]
measuredOn: L-type calcium channel (Rattus norvegicus)
readoutType: pIC50
val: 5.37
--
molecule: CC1=C(C(=O)O)C(c2cccc(Cl)c2)C(C(=O)OCCC(c2ccccc2)c2ccccc2)=C(C(F)(F)F)N1 (stereo not shown) [Example 57]
measuredOn: L-type calcium channel (Rattus norvegicus)
readoutType: pIC50
val: 5.75
--
molecule: CC1=C(C(=O)O)C(c2cccc(Cl)c2)C(C(=O)OCCC(c2ccccc2)c2ccccc2)=C(COCCc2ccncc2)N1 (stereo not shown) [Example 54]
measuredOn: L-type calcium channel (Rattus norvegicus)
readoutType: pIC50
val: 5.80
--
molecule: CC1=C(C(=O)OCCC(c2ccccc2)c2ccccc2)C(c2cccc(Cl)c2)C(C(=O)O)=C(COCCN2CCCCC2)N1 (stereo not shown) [Example 23]
measuredOn: L-type calcium channel (Rattus norvegicus)
readoutType: pIC50
val: 5.74
--
molecule: CC1=C(C(=O)O)C(c2cccc(Cl)c2)C(C(=O)OCCC(c2ccccc2)c2ccccc2)=C(COCCc2cccnc2)N1 (stereo not shown) [Example 33]
measuredOn: L-type calcium channel (Rattus norvegicus)
readoutType: pIC50
val: 5.77
--
molecule: COC(OC)C1=C(C(=O)OCCC(c2ccccc2)c2ccccc2)C(c2cccc(Cl)c2)C(C(=O)O)=C(C)N1 (stereo not shown) [Example 60]
measuredOn: L-type calcium channel (Rattus norvegicus)
readoutType: pIC50
val: 5.41
--
molecule: CC1=C(C(=O)O)C(c2cccc(Cl)c2)C(C(=O)OCCC(c2ccccc2)c2ccccc2)=C(COCCO)N1 (stereo not shown) [Example 20]
measuredOn: L-type calcium channel (Rattus norvegicus)
readoutType: pIC50
val: 5.54

----------
Target: N-type calcium channel (Homo sapiens)
Sequence (Q00975 whole entry): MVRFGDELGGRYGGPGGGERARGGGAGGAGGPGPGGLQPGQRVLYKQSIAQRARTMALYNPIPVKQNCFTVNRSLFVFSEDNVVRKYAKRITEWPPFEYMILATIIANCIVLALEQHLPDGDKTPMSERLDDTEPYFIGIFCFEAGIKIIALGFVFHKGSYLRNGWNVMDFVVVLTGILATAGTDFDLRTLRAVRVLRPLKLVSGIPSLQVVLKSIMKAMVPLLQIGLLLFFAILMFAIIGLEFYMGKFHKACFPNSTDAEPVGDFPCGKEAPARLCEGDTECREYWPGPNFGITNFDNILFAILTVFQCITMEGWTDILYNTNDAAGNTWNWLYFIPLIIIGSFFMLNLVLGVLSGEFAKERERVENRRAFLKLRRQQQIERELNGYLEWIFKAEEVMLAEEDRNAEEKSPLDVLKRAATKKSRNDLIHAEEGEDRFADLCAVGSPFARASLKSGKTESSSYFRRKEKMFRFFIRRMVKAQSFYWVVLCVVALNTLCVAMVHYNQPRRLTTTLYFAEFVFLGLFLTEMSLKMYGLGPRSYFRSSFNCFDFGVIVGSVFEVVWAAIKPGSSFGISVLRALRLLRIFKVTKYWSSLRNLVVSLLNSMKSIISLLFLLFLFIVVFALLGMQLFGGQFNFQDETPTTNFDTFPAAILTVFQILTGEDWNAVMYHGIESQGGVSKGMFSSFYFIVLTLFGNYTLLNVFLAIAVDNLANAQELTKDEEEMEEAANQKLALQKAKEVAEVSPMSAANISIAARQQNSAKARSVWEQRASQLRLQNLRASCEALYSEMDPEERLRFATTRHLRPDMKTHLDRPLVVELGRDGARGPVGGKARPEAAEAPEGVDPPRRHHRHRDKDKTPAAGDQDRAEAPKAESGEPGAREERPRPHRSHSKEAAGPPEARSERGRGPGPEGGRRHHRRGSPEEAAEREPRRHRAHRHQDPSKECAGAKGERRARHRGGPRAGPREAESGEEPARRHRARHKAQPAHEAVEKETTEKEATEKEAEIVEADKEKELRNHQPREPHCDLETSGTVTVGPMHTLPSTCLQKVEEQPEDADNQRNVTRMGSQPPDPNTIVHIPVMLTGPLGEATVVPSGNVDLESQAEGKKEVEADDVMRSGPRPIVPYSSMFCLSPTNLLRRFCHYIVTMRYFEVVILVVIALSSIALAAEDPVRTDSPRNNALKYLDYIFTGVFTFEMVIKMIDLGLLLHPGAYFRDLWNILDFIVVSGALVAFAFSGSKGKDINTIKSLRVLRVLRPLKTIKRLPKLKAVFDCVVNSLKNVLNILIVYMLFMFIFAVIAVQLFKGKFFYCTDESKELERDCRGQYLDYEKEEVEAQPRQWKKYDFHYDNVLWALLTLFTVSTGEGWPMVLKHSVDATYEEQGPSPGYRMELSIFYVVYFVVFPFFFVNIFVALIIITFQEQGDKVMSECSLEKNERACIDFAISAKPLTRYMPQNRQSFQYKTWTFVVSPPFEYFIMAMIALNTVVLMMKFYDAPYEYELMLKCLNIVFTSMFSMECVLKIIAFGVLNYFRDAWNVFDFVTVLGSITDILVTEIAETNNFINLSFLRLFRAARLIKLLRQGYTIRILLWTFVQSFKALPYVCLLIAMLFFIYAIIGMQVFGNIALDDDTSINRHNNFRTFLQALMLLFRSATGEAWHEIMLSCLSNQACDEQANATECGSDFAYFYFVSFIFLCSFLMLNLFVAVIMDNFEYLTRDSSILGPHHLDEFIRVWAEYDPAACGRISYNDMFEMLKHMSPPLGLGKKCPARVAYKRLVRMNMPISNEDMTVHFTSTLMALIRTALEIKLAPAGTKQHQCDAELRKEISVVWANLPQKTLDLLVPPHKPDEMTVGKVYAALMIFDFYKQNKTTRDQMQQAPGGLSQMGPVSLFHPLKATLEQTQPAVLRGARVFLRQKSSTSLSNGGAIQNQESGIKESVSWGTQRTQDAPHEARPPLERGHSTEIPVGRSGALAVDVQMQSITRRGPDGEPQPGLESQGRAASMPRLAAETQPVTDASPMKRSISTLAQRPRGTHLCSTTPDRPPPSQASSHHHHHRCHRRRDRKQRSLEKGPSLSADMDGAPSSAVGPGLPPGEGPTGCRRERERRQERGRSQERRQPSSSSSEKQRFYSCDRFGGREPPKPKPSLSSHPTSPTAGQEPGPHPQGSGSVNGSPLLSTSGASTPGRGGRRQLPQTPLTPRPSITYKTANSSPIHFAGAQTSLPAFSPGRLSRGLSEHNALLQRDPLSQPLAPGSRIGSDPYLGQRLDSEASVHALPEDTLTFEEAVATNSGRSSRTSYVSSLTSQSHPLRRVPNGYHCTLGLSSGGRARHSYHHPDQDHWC
Sequence (P54289 25-1103 partner): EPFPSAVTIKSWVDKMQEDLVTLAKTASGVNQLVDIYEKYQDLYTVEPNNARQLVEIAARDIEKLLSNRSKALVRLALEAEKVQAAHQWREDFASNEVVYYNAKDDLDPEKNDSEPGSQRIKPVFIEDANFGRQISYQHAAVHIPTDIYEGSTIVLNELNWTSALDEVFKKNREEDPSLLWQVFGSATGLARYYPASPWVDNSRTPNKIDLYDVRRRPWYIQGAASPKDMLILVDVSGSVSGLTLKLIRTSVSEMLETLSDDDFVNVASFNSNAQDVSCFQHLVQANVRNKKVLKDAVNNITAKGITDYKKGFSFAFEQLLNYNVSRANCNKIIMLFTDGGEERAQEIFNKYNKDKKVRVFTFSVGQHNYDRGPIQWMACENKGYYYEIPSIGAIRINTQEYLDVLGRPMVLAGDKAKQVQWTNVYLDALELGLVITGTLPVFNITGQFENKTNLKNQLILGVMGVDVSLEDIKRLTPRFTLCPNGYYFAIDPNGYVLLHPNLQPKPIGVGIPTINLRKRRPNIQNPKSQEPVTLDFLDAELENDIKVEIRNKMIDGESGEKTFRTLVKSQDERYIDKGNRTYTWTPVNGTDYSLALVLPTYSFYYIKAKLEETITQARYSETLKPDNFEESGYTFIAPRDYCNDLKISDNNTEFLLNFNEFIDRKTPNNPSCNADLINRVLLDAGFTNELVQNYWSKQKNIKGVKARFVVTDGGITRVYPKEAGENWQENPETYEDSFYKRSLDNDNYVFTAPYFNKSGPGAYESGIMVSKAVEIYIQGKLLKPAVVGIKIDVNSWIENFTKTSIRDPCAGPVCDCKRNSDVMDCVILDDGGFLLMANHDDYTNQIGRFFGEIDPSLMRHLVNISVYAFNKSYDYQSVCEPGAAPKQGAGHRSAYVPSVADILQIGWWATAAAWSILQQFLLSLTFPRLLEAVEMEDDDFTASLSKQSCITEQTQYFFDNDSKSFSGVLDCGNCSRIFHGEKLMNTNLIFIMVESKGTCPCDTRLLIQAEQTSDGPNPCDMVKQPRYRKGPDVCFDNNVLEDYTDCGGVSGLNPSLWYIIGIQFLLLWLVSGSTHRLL
Sequence (P54284 whole entry partner): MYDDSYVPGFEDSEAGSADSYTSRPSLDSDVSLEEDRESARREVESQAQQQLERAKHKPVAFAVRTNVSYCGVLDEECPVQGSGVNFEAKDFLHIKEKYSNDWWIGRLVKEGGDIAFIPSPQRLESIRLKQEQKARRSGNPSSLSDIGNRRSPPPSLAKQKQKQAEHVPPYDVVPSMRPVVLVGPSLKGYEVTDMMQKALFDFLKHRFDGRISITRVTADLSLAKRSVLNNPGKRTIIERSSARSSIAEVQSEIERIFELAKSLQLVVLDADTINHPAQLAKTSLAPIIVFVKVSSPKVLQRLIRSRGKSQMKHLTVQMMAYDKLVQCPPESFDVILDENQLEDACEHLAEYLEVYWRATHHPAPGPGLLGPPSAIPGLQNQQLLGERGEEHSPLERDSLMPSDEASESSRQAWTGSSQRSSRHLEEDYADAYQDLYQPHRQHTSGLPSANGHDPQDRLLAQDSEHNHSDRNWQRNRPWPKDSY
Test: N-type calcium channel antagonistic activity, changed procedure (calcium concentration change in IMR-32 cells, calculated from inhibition rates)
Assay type: cell-based
Conditions: 60 mM KCl stimulation, Table 10, read-out: N-type inhibition pIC50 (converted)
readoutType: IC50 (µM)

compound: COCC1=C(C(=O)OCCC(c2ccccc2)c2ccccc2)C(c2cccc(Cl)c2)C(C(=O)O)=C(C)N1 (centres unmarked)
val: 2
//
compound: CC1=C(C(=O)O)C(c2cccc(Cl)c2)C(C(=O)OCCC(c2ccccc2)c2ccccc2)=C(COCCO)N1 (centres unmarked)
val: 3.16
//
compound: CC1=C(C(=O)OCCC(c2ccccc2)c2ccccc2)C(c2cccc(Cl)c2)C(C(=O)O)=C(COCCN2CCCCC2)N1 (centres unmarked)
val: 1.58
//
compound: COC(OC)C1=C(C(=O)OCCC(c2ccccc2)c2ccccc2)C(c2cccc(Cl)c2)C(C(=O)O)=C(C)N1 (centres unmarked)
val: 1.58
//
compound: CC1=C(C(=O)O)C(c2cccc(Cl)c2)C(C(=O)OCCC(c2ccccc2)c2ccccc2)=C(C(F)(F)F)N1 (centres unmarked)
val: 1.58
//
compound: CC1=C(C(=O)O)C(c2cccc(Cl)c2)C(C(=O)OCCC(c2ccccc2)c2ccccc2)=C(COCCc2cccnc2)N1 (centres unmarked)
val: 1.58
//
compound: CC1=C(C(=O)O)C(c2cccc(Cl)c2)C(C(=O)OCCC(c2ccccc2)c2ccccc2)=C(COCCc2ccncc2)N1 (centres unmarked)
val: 2
//
compound: CC1=C(C(=O)O)C(c2cccc(Cl)c2)C(C(=O)OCCC(c2ccccc2)c2ccccc2)=C(COCCN2CCCCC2)N1 (centres unmarked)
val: 3.98

----------
Biological target: N-type calcium channel (Homo sapiens)
Assay: Antagonistic activity on N-type calcium channel (fluorescence dye method), IMR-32 cells, in presence of 1 μM Nifedipine
Type: cell-based
Details: 60 mM KCl stimulation, 0.1, 1 or 10 μM test compound, Table 9, read-out: N-type inhibition pIC50 (converted)
readoutType: IC50 (nM)

molecule: CC1=C(C(=O)O)C(c2cccc(Cl)c2)C(C(=O)OCCC(c2ccccc2)c2ccccc2)=C(COCCO)N1 (centres unmarked)
val: 1780
//
molecule: CC1=C(C(=O)O)C(c2cccc(Cl)c2)C(C(=O)OCCC(c2ccccc2)c2ccccc2)=C(COCCN2CCCCC2)N1 (centres unmarked)
val: 1580
//
molecule: COCC1=C(C(=O)OCCC(c2ccccc2)c2ccccc2)C(c2cccc(Cl)c2)C(C(=O)O)=C(C)N1 (centres unmarked)
val: 1200
//
molecule: CC1=C(C(=O)OCCC(c2ccccc2)c2ccccc2)C(c2cccc(Cl)c2)C(C(=O)O)=C(COCCN2CCCCC2)N1 (centres unmarked)
val: 1200
//
molecule: CC1=C(C(=O)OCCC(c2ccccc2)c2ccccc2)C(c2cccc(Cl)c2)C(C(=O)N2CCN(C(=O)OC(C)(C)C)CC2)=C(C)N1 (centres unmarked)
val: 372

----------
The entries below come with measured IC50 values attached.
Target: L-type calcium channel (Rattus norvegicus, UniProt P22002)
Construct: The slips of thoracic aorta extracted from a Sprague-Dawry rat was used; from tissue; host or cells: rat (Sprague-Dawley) thoracic aorta rings, endothelium removed
Experiment: Antagonistic activity on L-type calcium channel: relaxation of KCl contraction of rat thoracic aorta samples
Conditions: High K+ (50 mM KCl) contraction, Table 9, read-out: L-type inhibition IC50

molecule: COCC1=C(C(=O)OCCC(c2ccccc2)c2ccccc2)C(c2cccc(Cl)c2)C(C(=O)O)=C(C)N1 (centres unmarked) [Example 14]
IC50 (nM): 4280
//
molecule: CC1=C(C(=O)O)C(c2cccc(Cl)c2)C(C(=O)OCCC(c2ccccc2)c2ccccc2)=C(COCCO)N1 (centres unmarked) [Example 20]
IC50 (nM): 2780
//
molecule: CC1=C(C(=O)OCCC(c2ccccc2)c2ccccc2)C(c2cccc(Cl)c2)C(C(=O)O)=C(COCCN2CCCCC2)N1 (centres unmarked) [Example 23]
IC50 (nM): 1800
//
molecule: CC1=C(C(=O)O)C(c2cccc(Cl)c2)C(C(=O)OCCC(c2ccccc2)c2ccccc2)=C(COCCN2CCCCC2)N1 (centres unmarked) [Example 12]
IC50 (nM): 2690
//
molecule: CC1=C(C(=O)OCCC(c2ccccc2)c2ccccc2)C(c2cccc(Cl)c2)C(C(=O)N2CCN(C(=O)OC(C)(C)C)CC2)=C(C)N1 (centres unmarked) [Example 15]
IC50 (nM): 20800
